Please respond with reported absorbance at 450 nm for every item in the list.
# target: T1, human CD40-Fc protein (amino acid residue 21-193 of SEQ ID NO: 67 linked to N-terminus of amino acid residue … (human, biotin-labeled in the capture ELISA and in the benchmark blocking ELISA; unlabeled when coated in the ligand blocking ELISA)
# T1 construct: also called biotin-labeled human CD40-Fc; human CD40-Fc-biotin
# T1 sequence (chain, as listed by the source): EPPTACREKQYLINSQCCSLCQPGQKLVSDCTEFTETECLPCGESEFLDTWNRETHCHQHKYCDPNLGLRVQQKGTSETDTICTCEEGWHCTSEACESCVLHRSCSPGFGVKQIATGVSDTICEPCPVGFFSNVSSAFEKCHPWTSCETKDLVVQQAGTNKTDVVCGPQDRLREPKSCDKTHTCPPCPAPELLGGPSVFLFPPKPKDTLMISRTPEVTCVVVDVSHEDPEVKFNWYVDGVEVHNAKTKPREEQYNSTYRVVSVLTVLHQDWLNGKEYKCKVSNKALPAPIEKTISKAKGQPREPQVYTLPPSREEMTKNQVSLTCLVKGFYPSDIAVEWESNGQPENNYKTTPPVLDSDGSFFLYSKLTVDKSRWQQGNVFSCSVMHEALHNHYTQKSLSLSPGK
# protocol: capture ELISA, biotin human CD40-Fc; mAb at 0.64 ng/mL
Response body: numeric value in OD450, unit text excluded.

Prompt line: // query absorbance at 450 nm value for entry humanized antibody huC1C1-V3 (antibody, human IgG1, kappa, V domains shown, Human IgG1/kappa) VH: EVQLVESGGGVVQPGRSLRLSCAASGFTFSNYGMSWVRQAPGKGLEWVASISSGGDDTYYPDNVKGRCTISRDNSKNTLYLQMNSLRAEDTAVYYCTRAGGKAMDYWGQGTLVTVSS VL: EIVLTQSPATLSLSPGERATLSCRASQSIRDNLHWYQQKPGQAPRLLINYASQSISGIPARFSGSGSGTDFTLTISSLEPEDFAVYFCQQFNSWPLTFGQGTKVEIKR
Response line: 0.032

Prompt line: Consider next the binder humanized antibody huC1C1-V2 (antibody, human IgG1, kappa, V domains shown, Human IgG1/kappa) VH: EVQLVESGGGVVQPGRSLRLSCAASGFTFSNYGMSWVRQAPGKGLEWVASISSGGDDTYYPDNVKGRFTISRDNSKNTLYLQMNSLRAEDTAVYYCTRAGGKAMDYWGQGTLVTVSS VL: EIVLTQSPATLSLSPGERATLSCRASQSIRDNLHWYQQKPGQSPRLLINYASQSISGIPARFSGSGSGTDFTLTISSLEPEDFAVYFCQQFNSWPLTFGQGTKVEIKR in the same way.
Response line: 0.029

Prompt line: Consider next the binder chimeric antibody C1C1 (antibody, human IgG1, kappa, V domains shown, also called chC1C1; chimeric C1C1) VH: EVKLVESGGGLVKPGASLKLSCAASGFTFSNYGMSWVRQNSDKRLEWVASISSGGDDTYYPDNVKGRCTISRENAKNTLYLEMSSLKTEDTALYYCTRAGGKAMDYWGQGTSVTVST VL: DIVLTQSPATLSVIPGNSVSLSCRASQSIRDNLHWYQQKSHESPRLLINYASQSISGIPSRFSGSGSGTDFTLTINSVETEDFGIYFCQQFNSWPLTFGGGTKLELKR in the same way.
Response line: 0.035

Prompt line: Consider next the binder humanized antibody huC1C1-V4 (antibody, human IgG1, kappa, V domains shown, Human IgG1/kappa) VH: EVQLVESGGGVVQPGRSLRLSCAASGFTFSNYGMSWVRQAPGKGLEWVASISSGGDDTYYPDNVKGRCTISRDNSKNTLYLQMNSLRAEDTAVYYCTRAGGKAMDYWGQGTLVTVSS VL: EIVLTQSPATLSLSPGERATLSCRASQSIRDNLHWYQQKPGQSPRLLIYYASQSISGIPARFSGSGSGTDFTLTISSLEPEDFAVYFCQQFNSWPLTFGQGTKVEIKR in the same way.
Response line: 0.039

Prompt line: Consider next the binder humanized antibody huC1C1-V1 (antibody, human IgG1, kappa, V domains shown, Human IgG1/kappa; also called humanized C1C1-V1) VH: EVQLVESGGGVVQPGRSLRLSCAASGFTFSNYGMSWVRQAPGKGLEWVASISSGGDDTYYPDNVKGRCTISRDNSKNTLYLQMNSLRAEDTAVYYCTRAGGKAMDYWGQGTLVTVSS VL: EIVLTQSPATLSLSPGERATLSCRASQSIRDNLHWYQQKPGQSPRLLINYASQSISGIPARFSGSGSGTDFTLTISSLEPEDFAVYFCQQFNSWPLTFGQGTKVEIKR in the same way.
Response line: 0.035
